What kon was measured for each of the following?
- Subject of test: T1, in-line fusion protein of human IL-36R extracellular domain and IL1RAcP extracellular domain expressed with … (human; mouse, UniProt Q9HB29 20-337; Q9NPH3 21-359, limits assumed)
- T1 construct: not shown: mouse IgG2a Fc
- T1 sequence (looked up): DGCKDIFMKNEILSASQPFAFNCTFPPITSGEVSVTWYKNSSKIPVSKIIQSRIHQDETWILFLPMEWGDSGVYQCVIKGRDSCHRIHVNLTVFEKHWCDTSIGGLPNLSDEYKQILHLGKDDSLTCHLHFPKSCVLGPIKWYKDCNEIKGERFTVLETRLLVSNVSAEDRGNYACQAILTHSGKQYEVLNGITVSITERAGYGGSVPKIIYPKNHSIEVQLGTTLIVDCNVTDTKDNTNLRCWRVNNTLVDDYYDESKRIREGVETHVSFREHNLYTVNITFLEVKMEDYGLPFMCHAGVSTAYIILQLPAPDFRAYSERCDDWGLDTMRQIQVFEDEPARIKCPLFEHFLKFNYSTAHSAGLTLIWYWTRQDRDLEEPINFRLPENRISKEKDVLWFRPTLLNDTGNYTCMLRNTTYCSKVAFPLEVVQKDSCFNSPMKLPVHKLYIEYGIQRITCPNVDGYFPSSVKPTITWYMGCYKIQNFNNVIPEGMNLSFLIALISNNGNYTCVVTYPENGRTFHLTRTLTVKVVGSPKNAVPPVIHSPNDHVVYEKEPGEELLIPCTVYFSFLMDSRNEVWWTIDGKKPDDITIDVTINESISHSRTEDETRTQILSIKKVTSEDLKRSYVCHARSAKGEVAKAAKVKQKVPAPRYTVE
- Assay protocol: SPR Biacore 4000, mAb captured on anti-hFc, 25C
One number for each entry, in M⁻¹ s⁻¹.

Example entries begin here.
Binder: H4H14728P (antibody, human IgG4 S228P, kappa, V domains shown, Fully human anti-IL-36R antibody) VH: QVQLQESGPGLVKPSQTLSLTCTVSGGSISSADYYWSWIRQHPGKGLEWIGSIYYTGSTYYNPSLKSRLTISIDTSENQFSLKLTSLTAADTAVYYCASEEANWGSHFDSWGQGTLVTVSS VL: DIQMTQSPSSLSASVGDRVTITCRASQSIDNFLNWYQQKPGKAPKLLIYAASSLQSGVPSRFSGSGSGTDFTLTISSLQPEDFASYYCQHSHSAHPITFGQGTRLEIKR
kon / M⁻¹ s⁻¹: 40300

Binder: H4H14757P (antibody, human IgG4 S228P, kappa, V domains shown, Fully human anti-IL-36R antibody) VH: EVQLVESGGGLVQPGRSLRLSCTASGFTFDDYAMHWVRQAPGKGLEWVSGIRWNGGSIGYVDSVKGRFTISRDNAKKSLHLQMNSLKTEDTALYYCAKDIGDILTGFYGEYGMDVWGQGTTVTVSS VL: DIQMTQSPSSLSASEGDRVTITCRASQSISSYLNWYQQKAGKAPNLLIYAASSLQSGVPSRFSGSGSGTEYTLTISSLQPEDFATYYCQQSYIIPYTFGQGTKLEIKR
kon / M⁻¹ s⁻¹: 485000

Continue with the next binder.
kon recorded for this binder, H4H14709P (antibody, human IgG4 S228P, kappa, V domains shown, Fully human anti-IL-36R antibody) VH: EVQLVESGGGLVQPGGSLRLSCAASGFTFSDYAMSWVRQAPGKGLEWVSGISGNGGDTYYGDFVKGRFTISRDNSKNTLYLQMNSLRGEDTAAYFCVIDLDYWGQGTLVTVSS VL: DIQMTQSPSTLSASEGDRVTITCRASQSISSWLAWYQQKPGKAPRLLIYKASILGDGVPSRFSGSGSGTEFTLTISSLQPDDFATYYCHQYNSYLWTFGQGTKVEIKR , is 200000
